- target: NMDA NR1/NR2B receptor (Homo sapiens, UniProt Q05586+Q13224)
- Sequence (Q13224 27-1484, other chains not shown): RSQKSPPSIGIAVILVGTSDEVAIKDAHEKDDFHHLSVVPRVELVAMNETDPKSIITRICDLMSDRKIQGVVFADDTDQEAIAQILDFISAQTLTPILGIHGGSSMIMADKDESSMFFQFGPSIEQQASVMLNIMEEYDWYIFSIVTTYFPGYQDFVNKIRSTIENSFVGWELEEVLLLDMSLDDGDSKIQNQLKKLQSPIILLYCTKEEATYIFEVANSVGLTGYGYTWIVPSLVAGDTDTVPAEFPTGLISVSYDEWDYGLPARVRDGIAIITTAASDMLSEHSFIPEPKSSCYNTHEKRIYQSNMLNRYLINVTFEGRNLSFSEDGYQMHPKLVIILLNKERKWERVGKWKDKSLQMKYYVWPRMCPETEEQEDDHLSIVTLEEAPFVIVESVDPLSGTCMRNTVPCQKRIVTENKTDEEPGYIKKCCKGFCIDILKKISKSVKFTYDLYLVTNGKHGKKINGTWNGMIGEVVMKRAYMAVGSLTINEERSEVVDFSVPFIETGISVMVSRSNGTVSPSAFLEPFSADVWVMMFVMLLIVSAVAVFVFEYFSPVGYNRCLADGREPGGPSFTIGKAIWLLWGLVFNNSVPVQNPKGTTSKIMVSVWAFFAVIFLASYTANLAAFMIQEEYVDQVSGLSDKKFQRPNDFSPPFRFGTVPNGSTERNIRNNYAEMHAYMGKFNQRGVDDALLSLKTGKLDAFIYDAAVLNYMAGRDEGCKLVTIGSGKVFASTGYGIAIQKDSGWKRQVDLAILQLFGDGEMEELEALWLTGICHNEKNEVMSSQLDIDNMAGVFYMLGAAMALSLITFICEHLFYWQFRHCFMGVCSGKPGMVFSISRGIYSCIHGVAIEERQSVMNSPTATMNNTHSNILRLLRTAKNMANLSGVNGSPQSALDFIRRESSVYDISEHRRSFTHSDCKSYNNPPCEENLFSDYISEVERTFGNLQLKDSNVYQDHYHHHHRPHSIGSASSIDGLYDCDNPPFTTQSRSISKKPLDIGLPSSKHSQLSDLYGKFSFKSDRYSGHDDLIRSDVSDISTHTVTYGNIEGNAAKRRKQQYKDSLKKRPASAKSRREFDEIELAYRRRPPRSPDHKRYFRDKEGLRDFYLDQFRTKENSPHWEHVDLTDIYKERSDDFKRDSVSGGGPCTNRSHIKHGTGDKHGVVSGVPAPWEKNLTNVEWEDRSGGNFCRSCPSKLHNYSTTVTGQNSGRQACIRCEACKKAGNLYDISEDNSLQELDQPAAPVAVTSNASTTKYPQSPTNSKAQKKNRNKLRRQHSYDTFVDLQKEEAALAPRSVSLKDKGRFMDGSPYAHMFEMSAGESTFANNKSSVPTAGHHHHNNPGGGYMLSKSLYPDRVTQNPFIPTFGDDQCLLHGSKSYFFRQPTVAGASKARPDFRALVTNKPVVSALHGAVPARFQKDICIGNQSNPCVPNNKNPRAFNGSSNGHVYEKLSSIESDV
- assay_protocol: In vitro NMDA NR1/NR2b cell assay (FLIPR, intracellular calcium induced by glycine/glutamate)
- condition: HEK293 cells expressing NMDA NR1/NR2B, 20 μM glycine, 1 μM glutamate, compounds of the invention (Table 1)
observed_property: IC50 (nM)

For orientation, consider the following solved cases.
Cc1ccc(COC(=O)N2CCO[C@H](c3nc4cccnc4[nH]3)C2)cc1F :: 73
O=C(OCc1c(F)cccc1F)N1CCO[C@H](c2nc3cccnc3[nH]2)C1 :: 104
Cc1cccc(COC(=O)N2CCO[C@H](c3nc4cccnc4[nH]3)C2)c1 :: 293

[P] O=C(OCc1ccc(C(F)F)cc1)N1CCO[C@H](c2nc3cccnc3[nH]2)C1
[Q] O=C(OCc1ccc(F)c(F)c1)N1CCO[C@H](c2nc3cccnc3[nH]2)C1
Q: Endpoint returns the identifier whose IC50 is numerically larger, either P or Q . Kindly give the label for the entry you pick.
A: Q
(Q: 748 nM, P: 78 nM)

[P] Cc1ccc(COC(=O)N2CCO[C@H](c3nc4cc(F)cnc4[nH]3)C2)cc1
[Q] O=C(OCc1ccccc1)N1CCO[C@H](c2nc3cccnc3[nH]2)C1
Q: Endpoint returns the identifier whose IC50 is numerically larger, either P or Q . Kindly give the label for the entry you pick.
A: P

[a] O=C(OCc1cccc(F)c1F)N1CCO[C@H](c2nc3cccnc3[nH]2)C1
[b] Cc1cccc(F)c1COC(=O)N1CCO[C@H](c2nc3cccnc3[nH]2)C1
Q: Endpoint returns the identifier whose IC50 is numerically larger, either a or b . Kindly give the label for the entry you pick.
A: b
